- test target: hSTING(H232) (Homo sapiens)
- Sequence (Q86WV6 whole entry): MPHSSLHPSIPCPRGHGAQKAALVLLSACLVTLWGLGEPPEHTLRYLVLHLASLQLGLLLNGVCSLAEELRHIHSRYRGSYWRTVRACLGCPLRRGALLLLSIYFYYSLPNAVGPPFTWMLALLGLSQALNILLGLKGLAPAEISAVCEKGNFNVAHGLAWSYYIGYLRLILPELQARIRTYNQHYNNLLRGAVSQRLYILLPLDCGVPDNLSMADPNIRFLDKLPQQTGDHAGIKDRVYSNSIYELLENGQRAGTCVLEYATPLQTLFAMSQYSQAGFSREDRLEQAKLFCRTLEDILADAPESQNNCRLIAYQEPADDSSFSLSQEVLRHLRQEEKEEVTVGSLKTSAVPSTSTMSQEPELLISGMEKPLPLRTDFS
- procedure text: Luciferase reporter assay in HEK293T-hSTING-Luciferase cells, H232/REF polymorph
- run conditions: H232/REF polymorph of human STING, EC50 range class
readout kind: EC50

Sample records with EC50:
{"columns": ["molecule", "test target", "EC50"],
 "data": [
  ["C[C@H]1c2ccc(C(=O)NCc3c(F)cc(F)cc3F)cc2N(Cc2c(F)cccc2Cl)C(=O)N1C (single isomer, unassigned)", "hSTING(H232) (Homo sapiens)", "< 1000 nM"],
  ["CC1c2ccc(C(=O)NCc3c(F)cc(F)cc3F)cc2N(Cc2c(F)cccc2N(C)C)C(=O)N1C (stereo not shown)", "hSTING(H232) (Homo sapiens)", "1000 to 10000 nM"],
  ["Cc1ccc(CNC(=O)c2ccc3c(c2)N(Cc2c(F)cccc2Cl)C(=O)N(C)C3C)o1 (stereo not shown)", "hSTING(H232) (Homo sapiens)", "1000 to 10000 nM"],
  ["C[C@H]1c2ccc(C(=O)NCc3c(F)cc(F)cc3F)cc2N(Cc2c(N)cccc2F)C(=O)N1C", "hSTING(H232) (Homo sapiens)", "< 1000 nM"]
]}

Ask | Which EC50 value belongs to COC(=O)c1ccc(F)c(CN2C(=O)N(C)[C@@H](C)c3ccc(C(=O)NCc4c(F)cc(F)cc4F)cc32)c1Cl ?
Reply | < 1000 nM

Ask | Which EC50 value belongs to C[C@H]1c2ccc(C(=O)NCc3c(F)cc(F)cc3F)cc2N(Cc2c(F)ccc(O)c2Cl)C(=O)N1C ?
Reply | < 1000 nM

Ask | Which EC50 value belongs to C[C@H]1c2ccc(C(=O)NCc3c(F)cc(F)cc3F)cc2N(Cc2cc(O)cc(F)c2F)C(=O)N1C ?
Reply | < 1000 nM
